test system: Fibroblast; assay: Incucyte cell viability with human fibroblast; format: toxicity, cell-based; conditions: 6 h, 10 µM, compound concentration 10 uM, replicate number 1, timepoint 6 hours; also: unitless GR value; below 1 slowed growth and below 0 cell loss
# maps each entry to its Growth Rate
Please reply with the number alone, leaving off any unit.

Compound | Attribute measured | Reading
COc1ccc(NC(=O)c2ccc(-c3ccc(-c4noc(C)n4)cc3C)cc2)cc1OCCN(C)C.Cl | Growth Rate | -0.36
Cl.FC(F)(F)c1ccc(N2CCNCC2)nc1Cl | Growth Rate | 0.27
CC(C)CC(=O)Nc1cncc(-c2ccc3[nH]nc(-c4nc5c(-c6cccc(F)c6)cncc5[nH]4)c3c2)c1 [LORECIVIVINT] | Growth Rate | -0.2
CN(C)CCCc1cc(C(=O)Nc2ccc(-c3ccncc3)cc2)ccc1O.Cl.Cl | Growth Rate | 0.34
CCCCCC(O)/C=C/[C@H]1C(=O)CC(O)C1C/C=C\CCCC(=O)O (stereo partly drawn) | Growth Rate | -0.61

If you can, please state the reported Growth Rate value of CN(c1ncccc1CNc1ccnc(-c2cc3cc(Cl)ccc3[nH]2)n1)S(C)(=O)=O .
-0.63

Item CC(/C=C1\SC(=S)N(CCCC(=O)Nc2ccc(C(=O)O)c(O)c2)C1=O)=C\c1ccccc1 has what recorded Growth Rate?
0.97

I'd like to know its Growth Rate. The compound in question is O=c1ccn([C@@H]2O[C@H](COP(=O)([O-])OP(=O)([O-])OP(=O)([O-])O)[C@@H](O)[C@H]2O)c(=O)[nH]1.[Na+].[Na+].[Na+]
0.2

The values you see were collected from ChEMBL document CHEMBL5058564.
